Below, each of the compounds is paired with its reported pIC50 value.
tested on: PC-3; test: Cytotoxicity against human PC3 cells after 48 hrs by SRB assay; assay type: functional, cell-based; details: PC-3, 48 h
pIC50: −log10 of the molar value.

| COMPOUND | pIC50 |
| --- | --- |
| C=CC(=C)CC[C@]1(C)[C@H]2C[C@H](OC(=O)C(C)CC)C=C3[C@H](OC(=O)CCC)O[C@H](OC(C)=O)[C@@]32[C@H](O)C[C@@H]1C (relative stereo) | 5.82 |
| C=CC(=C)CC[C@]1(C)[C@H]2C[C@H](OC(=O)C(C)CC)C=C(C=O)[C@@]2(C=O)[C@H](O)C[C@@H]1C (relative stereo) | 5.52 |
| C=CC(=C)CC[C@]1(C)[C@H]2C[C@H](OC(=O)C(C)CC)C=C3[C@H](OC(=O)CCC)O[C@H](OC(C)=O)[C@@]32[C@H](O)[C@H](OC(C)=O)[C@@H]1C (relative stereo) | 5.62 |
| CC(=O)O[C@H]1C(=O)[C@@]2(C)[C@H]([C@H](OC(=O)c3ccccc3)[C@]3(O)C[C@H](OC(=O)[C@H](O)[C@@H](NC(=O)c4ccccc4)c4ccccc4)C(C)=C1C3(C)C)[C@]1(OC(C)=O)CO[C@@H]1C[C@@H]2O | 7.80 |
| C=CC(=C)CC[C@]1(C)[C@H]2C[C@H](OC(=O)C(C)CC)C=C3[C@H](OC(=O)CCC)O[C@H](OC(C)=O)[C@@]32[C@H](OC(C)=O)[C@H](OC(C)=O)[C@@H]1C (stereo not given in full) | 4.89 |
| C=CC(=C)CC[C@]1(C)[C@H]2C[C@H](OC(=O)C(C)CC)C=C3[C@H](OC)O[C@H](OC(C)=O)[C@@]32[C@H](O)C[C@@H]1C (relative stereo) | 4.65 |
| C=CC(=C)CC[C@]1(C)[C@H]2C[C@H](OC(=O)C(C)CC)C=C3[C@H](OC(=O)CCC)O[C@H](OC(C)=O)[C@@]32[C@H](O)[C@H](O)[C@@H]1C (relative stereo) | 6.22 |
| C=CC(=C)CC[C@]1(C)[C@H]2C[C@H](OC(=O)C(C)CC)C=C3[C@H](OC(C)=O)O[C@H](OC(C)=O)[C@@]32[C@H](OC(=O)c2cccnc2)C[C@@H]1C (stereo not given in full) | 4.89 |
| C=CC(=C)CC[C@]1(C)[C@H]2C[C@H](OC(=O)C(C)CC)C=C3[C@H](OC(C)=O)O[C@H](OC(C)=O)[C@@]32[C@H](O)C[C@@H]1C (relative stereo) | 5.74 |
| C=CC(=C)CC[C@]1(C)[C@H]2C[C@@H](OC(=O)C(C)CC)C=C3[C@H](OC(C)=O)O[C@H](OC(C)=O)[C@@]32[C@H](O)C[C@@H]1C (relative stereo) | 5.54 |
